System: Senescent cells (SnC)
Assay: Cell survival EC50 of MDM2 inhibitors, senescent cells
readout_name: EC50 dose ratio HD NsC/SnC

                                   compound  experimental_value
0  O=C1c2c(c(-c3ccccc3)nn2Cc2ccccc2)C(c2ccc(Br)cc2)N1CCCn1ccnc1 (centres unmarked) [CAY10681]                 1.6
1  O=C1c2c(c(-c3ccccc3)nn2Cc2ccc(F)cc2)C(c2ccc(Br)cc2)N1CCCn1ccnc1 (centres unmarked) [CAY10682]                 1.3
2  O=C(/C=C/c1ccc(I)cc1)c1ccc(B(O)O)cc1 [Boronate, trans-4-Iodo, 4′-boranyl-chalcone]                14.1
3  OCc1ccc(-c2ccc(-c3ccc(CO)s3)o2)s1 [RITA]                 0.9
4  CCCCn1c(=O)[nH]c(O)c(C2NCCc3c2[nH]c2ccccc32)c1=O (centres unmarked) [MEL23]                 5.2
5  c1ccc2c(CCNc3ccc(Nc4ccncc4)cc3)c[nH]c2c1 [JNJ 26854165]                 6.5
6  CC(C)[C@@H](CS(=O)(=O)C(C)C)N1C(=O)[C@@](C)(CC(=O)O)C[C@H](c2cccc(Cl)c2)[C@H]1c1ccc(Cl)cc1 [AMG-232]                 1.2
7  COc1cc(C(=O)O)ccc1NC(=O)[C@@H]1N[C@@H](CC(C)(C)C)[C@](C#N)(c2ccc(Cl)cc2F)[C@H]1c1cccc(Cl)c1F [RG7388]                 1.0
